# PROTOCOL_TEXT: yeast display, Sf9 membrane polyspecificity reagent, FACS + sequencing; frameworks hold sequencing errors
ENDPOINT: polyreactivity (PSR sort gate)

Please review the following examples before continuing.
1) QVQLVESGGGLVQAGGSLRLSCAASGFTFGYYGMGWYRQATGKEMELVAAIDCSGASTYYADSVKGRFTISRDNAKNTVDLQINSLKPEDSAVYYCNADRYLYSLYTYEYDYWGHGTQVTVSS; low polyreactivity
2) QVQLVESGGGLVQAGGSLRLSCAASGFTFDKKVMGWYRLAPGKERELVAANSVRGGTTYYADSVKGRFTISRDYAKNTVYLQMNSLKPEDSAVYDCAARAYGPPARYESWGQGTQVTVSS; low polyreactivity
3) QVQLVESGGGLVQAGGSLRLSCAASGSTIRRNAKGWYRQAPGKERELVAAITRRAVSTYYADSVKGRFTISRDNAKNTVYLQMNSLKPEDTAVYYCAADRASYFTYAYGYWGQGTQVTVSS; high polyreactivity
4) QVQLVESGGGLDQAGGSLRLSCAASGRTFYYYAMGWYRQAPGIERELVAAISWSGGNTYYADSVKGRFTISRDNAKNTVYLQMNSLKPEDTAVYYCNRAYRTLTARTGRYDYWGQGTQVTVSS; high polyreactivity
5) QVQLVESGGGLVQAGGSLRLSCAASGSIFIYYTMGWYRQAPGKEREFVASISWRGGRTYYADSVKGRFTISRDNAKNTVYLQMNSLKPEDTAVYYCAAKSRAYSYRMDYWGQGTQVTVSS; high polyreactivity

Request: So what does the record say about polyreactivity (PSR sort gate) for "QVQLVESGGGLVQAGGSLRLSCAASGSIFRLYAMGWYRQAPGKERELVAAISRRGGSTNYADSVKGRFTISRDNAKNTVYLQMNSLKPEDTAVYYCARDVDTHYPYAYDYWGQGTQVTVSS" ?
Response: high polyreactivity

Request: Consider next the sequence "QVQHVESGGGLVQAGGSLRLSCPASGLTVGGYAMGWYRQAPGKERELVAAISLSGGRTYYADSVKGRFTISRDIPMITVYLLMNSLKPEVSAVYYCAASILVVYLREDYWGQGTQVTVSS" in the same way.
Response: high polyreactivity

Request: Consider next the sequence "QVQIVESGGGLVQAGRSLRLSCAASGIIFRRYAMGWYRQAPGKETELVAAISSRGGSTYYADSVKGRFTISRDNAKNTVYLQMNSLKPEDTAVYYCAKGFSGTGGSGDFGYWGQGTQVTVSS" in the same way.
Response: high polyreactivity

Request: Consider next the sequence "QVQLVESGGGLVQAGGSLRLSCAASGRIFTPNAMGWYRQAPGKERELVAAISRSGGSTYYADSVKGRFTISRDTAKNTVYLQMKSLKPEDTAVDYCNKLRTPSSGLDYWGQGTQVTVSS" in the same way.
Response: high polyreactivity

Request: Consider next the sequence "QVQLVESGGGLVQAGGSLRLSCAASGFIFYGYAMGWYRQAPGKERELVAGISTVGSTNYADSVKGRFTISRDNAKNTVYLQMNSLKPEDSAVYYCAVVDVEDHVGHWGQGTQVTVSS" in the same way.
Response: low polyreactivity

Request: Consider next the sequence "QVQLVESGGGLVQAGGSLRLSCAASGFTFKRYAMGWYRQAPGKERELVAAISYGGSRTYYADSVKGRFTISRDNAKNTVYLQMNSLKPEDTAVYYCNFRRRTWHYITSMDYWGQGTQVTVSS" in the same way.
Response: high polyreactivity

Request: Consider next the sequence "QVQLVESGGGLVQAGGSLRLSCAASGRIFRSYAMGWYRQAPGKERELVAAISSGGSTNYADSVKGRFTISRDNAKNTVYLQMNSLKPEDTAVYYCAASYLYEWSRFVYDGLYYWGQGTQVTVSS" in the same way.
Response: low polyreactivity

====

# PROTOCOL_TEXT: yeast display, Sf9 membrane polyspecificity reagent, FACS + sequencing; frameworks hold sequencing errors
ENDPOINT: polyreactivity (PSR sort gate)

1. QVQLVESGGGLVQAGGSLRLSCAASGFTFRRYAMGWYRQAPGKERELVATITKGGGSTYYADSVKGRFTISRDNAKNTVYLQMNSLKPEDTAVYYCAKRYPYGLTVGASDYWGQCTQVTVSS; high polyreactivity
2. QVHLVESGGGLVQAGGSLRLSCAASGIIFSDYALGWYRQAPGKERELVAAITSSGCSTYYADSVKGRFTISRDNAKNTVYLQMNSLKPEDTAVYYCNARYRRKSWRPFDYWGQGTQVTVSS; high polyreactivity
3. QVQLVESGGGLVQAGGSLRLSCAASGRTFPYYAMGWYRQAPGKERELVATITRGGSTYYADSVKGRFTISRDNAKNTVYLQMNSLKPEDTAVYYCNADYWGHRFYFPGRRDYWGQGTQVTVSS; low polyreactivity
4. QVQLVESGGGLVQAGGSLRLSCAASGSIFKPYAMGWYRQAPGKERELVAAINRGGTSTYYADSVKGRFTISRDNAKNTVYFQMNSLKPEDTAVYYCAAPNRYSVPMYYWGQGTQVTVSS; low polyreactivity

Query sequence follows.
Request: So what does the record say about polyreactivity (PSR sort gate) for "QVQLVESGGGLVQAGGSLRLSCAASGRIFYGYVMGWYRQAPGKERELVAAISWSAGRTYYADSVKGRFTISRDNAKNTVYLQMNSLKPEDTAVYYCAARYFSLYVWSTFEYWGQGTQVTVSS" ?
Response: high polyreactivity

====

# PROTOCOL_TEXT: yeast display, Sf9 membrane polyspecificity reagent, FACS + sequencing; frameworks hold sequencing errors
ENDPOINT: polyreactivity (PSR sort gate)

Please review the following examples before continuing.
1) QVQLVESGGGLVQAGGSLRLSCAASGSIFYSYAMGWYRQAPGKERELVAAITTGGSTYYADSVKGRFTISRDNAKNTVYLQMNSLKPEDTAVYYCAADFKPTVTNEPKELDYWGQGTQVTVSS; low polyreactivity
2) QVQLVESGGGLVQAGGSLRLSCAASRYIFAHYAMGWYRQAPGKERELVAAISTRGGSTYYADSVKGRFTISRDNAKNTVYLQMNSLKPEDTAVYYCNNYRYAGITAEFYYWGQGTQVTVSS; high polyreactivity
3) QVQLEESGGGVVQAGGSLSLSCAASVSTFIFNTMGWYRQATGKERELVASITGDGRTNYADSVKGRFTISRDNAKNTVYLQMNSLKPEDTAVYDCAADGYDQYPLWAPPGDYWGQGTQVTVSS; low polyreactivity
4) QVQLVESGGGLVQAGRSLRLTCAASGRTFWWYAMGWYRQAPGKEWEFVAAISQRGTSTYYADSVKGRFTISRDNAKNTVYLQMNSLKPEDTAVYDCAATVYPSWYVLFTARRMDYWGQGTQVTVSS; high polyreactivity

Query sequence follows.
Request: So what does the record say about polyreactivity (PSR sort gate) for "QVQLVESGGGLVQAGGSLRLSCAASGSIFPVYAMGWYRQAPGKERELVAAISWGGGNTYYADSVKGRFTISRDNSKNTVYLQMNSLKPEDTAVYYCNKRSRLGRGNRDYRGQGTQVTVSS" ?
Response: high polyreactivity

====

# PROTOCOL_TEXT: yeast display, Sf9 membrane polyspecificity reagent, FACS + sequencing; frameworks hold sequencing errors
ENDPOINT: polyreactivity (PSR sort gate)

Please review the following examples before continuing.
1. QVQLVESGGGLVQAGGSLRLSCDASGFIFYYYDMGWYRQAPGKERELVASIDNGGDTNYADSVKGRFTISLDNAKNTVYLQMNSLKPEDTAVYYCAAPYSPLWYPGGDYWRQGTQVTVSS; low polyreactivity
2. QVQLVESGGGLVQAGGSLRLSCAASGNTFIYYGMGWYRQAPGKERELVAAITWSGGSTYYADSVKGRFTISRDNAKNTVYLQMNSLKPEETAVYYCAKFTHNYYYWGQGTQVTVSS; high polyreactivity
3. QDQLVEAGGGLVQAGGSLRLSCAASGFTFYPYAMGWYRQAPGKERELVAAISYSGDRTYYADSVKGRFTISRDNAKNTVYLQMNSLKPEDTAVYDCVSAVHPGKYYYWGQGTQVTESS; high polyreactivity
4. QVQLVESGGGLVQAGGSLRLSCAASGFTFGWNAMGWYRQAPGKERELVAAITSGGITNYADSVKGRFTISRDNAMNTVYLQMNSLKPEDTAVYYCNARPTSRRSWYYWKGYDYWGQGTQVTVSS; high polyreactivity
5. QVQLVESGGGLVQAGGSLRLSCAASGIIFYDYAMGWYRQAPGKERELVATITRGGGTKYADSVKGRFTISRDNAKNTVYLQMNSLKQEDTAVYYCAADSHGDYEGDYWGQGTQVTVSS; low polyreactivity
6. QVQLVESGGGLVQAGGSLRLSCAASGGIFGYYVMGWYRQAPGKERELVAVITRGGSTNYADSLKGRFTISRDNAKNTVYLQMNSLKPEDTAVYYCNAGPAGYYDYDYWGQGTQVTVSS; low polyreactivity

Request: So what does the record say about polyreactivity (PSR sort gate) for "QVQLVESGGGLVQAGGSLRLSCAASGRIFSYNAMGWYRQAPGKERELVAAITSSGSTYADSVKVRFTISRDNAKNTVYLQMNSLKPEDTAVYYCASYYNWSGHYYWGQGTQVTVSS" ?
Response: low polyreactivity

Request: Consider next the sequence "QVQLEESGGRLVQAGGSLRLSCAASGFIFGWNAMGWYRQAPGKERELVASIRSSGGTTYADSVKGRFTISRDNAKNTVYLEMNSLKPEDTAVYYCSKRDRYKRYDFWGLGTQVTVSS" in the same way.
Response: low polyreactivity

Request: Consider next the sequence "QVQLVESGGGLVQAGGSLRLSCAASGSTFYYNAMGWYRQAPGKERELVAAITFTGGSTYADSVKGRFSISRDNAKNTVYLQMNSLKPEDTAVYYCAATIQGHDYLGTGYDYWGQGTQVTVSS" in the same way.
Response: low polyreactivity

Request: Consider next the sequence "QVQLVESGRGLVQAGCSLRLSCAASGRTFSLYAMGWYRQAPGKERELVAAITLSAGSTYYADSVKGRFTISRDNEKNTVYLQMNSLKPEDTAVYYCNTRTLVAMGYWGQGTQVTVSS" in the same way.
Response: high polyreactivity

Request: Consider next the sequence "QVQLVESGGGLVQAGGTLRLSCSASGRTFYSYAMGWYRQAPGKERELVAAISYTGASTFYADSVKGRFTISRDNAKNTVYLQMNSLIPEDTAVYYCAAESQPSYGETDEYWGQGTQVTVSS" in the same way.
Response: high polyreactivity
